# System: MS2 coat protein
# ASSAY SUMMARY: apparent KD of MS2 coat protein, switch ON state; designed switch direction (-1 OFF switch, 1 ON switch): 1; higher = weaker reporter binding
# CONDITION PARAMETERS: FMN input: 0 or 200 uM; Eterna round: R93 (includes R88 designs)
Classify as follows. Reported apparent KD of MS2 coat protein greater than or equal to 0.04 µM: label 1. Reported apparent KD of MS2 coat protein below: label 0.

{"columns": ["SEQ TEXT", "TGT", "CLASS LABEL"],
 "data": [
  ["AAUAUAUUAAGUGAGGAUAUCGAGGAAAAAACAUGAGGAUCACCCAUGUGGGAAACAUGGUAGGGUGAGAAGGUACUUAAUAUAU [Samwise Clockwise 23 - Jieux - Same State 2]", "MS2 coat protein", "label 1"],
  ["GAAAAACAUGAGGAUCACCCAUGUAGAAAUAUGGGAGGAUAUACUAAGACGAAAGUCGAUGUAGAAGGCCUAAAAG [Same State 1.4g (Mat - Mod of Eli - )]", "MS2 coat protein", "label 0"],
  ["GAGGACCUAGGAUAGGAUAUAUGAAUAAUUACAUGAGGAUCACCCAUGUCCAUUUAUAUGGGAACAUAGAAGGGUUCUGGUUAUC [SameState2 Malc#37]", "MS2 coat protein", "label 0"],
  ["UUGCAGUACGGGUAGGAUAUGUAGGGUGGUACAUGAGGAUCACCCAUGUGUCCACCCUUCGACCGGCAGAAGGGCCUGUCACUGC [Lerieseser]", "MS2 coat protein", "label 0"],
  ["AAGACACAUGAGGAUCACCCAUGUCAAGAGAGACGAGGAUAUCUGAAAAAAAAAAAAAAAGGAGAAGGCGUGAAAA [Same State of Confusion]", "MS2 coat protein", "label 0"]
]}
